Attribution: patent US20240409599A1

Reported kon values are given for each entry in this list.
# TARGET ENTITY: T1, Human IL-18BP (isoform A) (human, UniProt O95998 31-194, biotinylated (site not stated))
# T1 construct: also called decoy receptor
# T1 sequence: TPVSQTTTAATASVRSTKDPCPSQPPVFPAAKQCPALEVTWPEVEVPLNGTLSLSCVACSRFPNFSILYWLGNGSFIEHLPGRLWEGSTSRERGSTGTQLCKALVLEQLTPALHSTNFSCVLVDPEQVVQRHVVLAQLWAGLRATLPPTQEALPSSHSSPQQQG
# PROTOCOL TEXT: SPR, Biacore 8K, 37 C, biotinylated target on SA chip, single-cycle kinetics
Expressed in M⁻¹ s⁻¹, but write only the number.

Example entries and their recorded answers appear below.
| BINDER | kon, M⁻¹ s⁻¹ |
| --- | --- |
| Human IL-18 A162C/I185C (ligand, Made in mammalian cells) YFGKLESKLSVIRNLNDQVLFIDQGNRPLFEDMTDSDSRDNAPRTIFIISMYKDSQPRGMAVTISVKSEKISTLSSENKIISFKEMNPPDNIKDTKSDIIFFQRSVPGHDNKMQFESSSYEGYFLCSEKERDLFKLILKKEDELGDRSCMFTVQNED | 2.91e+06 |
| Human IL-18 I107C/N123C (ligand, Made in mammalian cells) YFGKLESKLSVIRNLNDQVLFIDQGNRPLFEDMTDSDSRDNAPRTIFIISMYKDSQPRGMAVTISVKSEKCSTLSSENKIISFKEMCPPDNIKDTKSDIIFFQRSVPGHDNKMQFESSSYEGYFLASEKERDLFKLILKKEDELGDRSIMFTVQNED | 2.9e+06 |

Continue with the binder presented below.
Please look at this binder and report its kon: Human IL-18 S46C/V189C (ligand, Made in mammalian cells) YFGKLESKLCVIRNLNDQVLFIDQGNRPLFEDMTDSDSRDNAPRTIFIISMYKDSQPRGMAVTISVKSEKISTLSSENKIISFKEMNPPDNIKDTKSDIIFFQRSVPGHDNKMQFESSSYEGYFLASEKERDLFKLILKKEDELGDRSIMFTCQNED
2.3e+06
